- Test Description: qHTS of pediatric cancer cell lines to identify multiple opportunities for drug repurposing: Primary screen for RD cells (AID 1347104); also: nearly all actives have a fitted effect of over 55% in size; also: potency is read from the fitted curve at half-maximal effect
- Reported Conditions: RD rhabdomyosarcoma viability, CellTiter-Glo luminescence, 48 h; series mostly up to 46 µM
Inconclusive results are not listed. Calls of active or inactive are those of the source. Calls follow the shape of the dose curve; as a rule, active = well fitted cell-killing curve with a large enough effect; inconclusive = small, poorly fitted or top-dose-only effect; inactive = flat fitted curve, though single readings scatter.
Measured Quantity: Potency

Guide cases for Potency, answers given:
- Cc1ccc(O)c(C(CCN(C(C)C)C(C)C)c2ccccc2)c1 (stereo not drawn): inactive
- Nc1nc(N)c2nc(-c3cccc(O)c3)c(-c3cccc(O)c3)nc2n1: 11.8 µM (active)
- Oc1cc(-c2nc(-c3ccccc3)[nH]c2-c2ccncc2)ccc1Cl: 2.09 µM (active)
- COc1cc([C@@H]2c3cc4c(cc3[C@@H](O[C@@H]3O[C@@H]5CO[C@@H](c6cccs6)O[C@@H]5[C@H](O)[C@@H]3O)[C@H]3COC(=O)[C@H]23)OCO4)cc(OC)c1O: 2.96 µM (active)
- CCOC(=O)N1CCN([N+]([O-])=NOc2ccc([N+](=O)[O-])cc2[N+](=O)[O-])CC1: 18.7 µM (active)

Q) // lookup Potency for C[C@H](CCC(=O)O)[C@H]1CCC2C3C[C@H](O)[C@@H]4C[C@H](O)CC[C@]4(C)C3CC[C@@]21C (stereo partly drawn)
A) inactive

Q) Can you share its Potency? I mean this compound: "C[C@]12C=CC(=O)N[C@@H]1CC[C@H]1[C@H]3CC[C@@H](C(=O)Nc4cc(C(F)(F)F)ccc4C(F)(F)F)[C@@]3(C)CC[C@@H]12"
A) inactive

Q) Using the record for "CCCCC(=O)O[C@]1(C(=O)CO)[C@@H](C)C[C@H]2[C@@H]3CCC4=CC(=O)C=C[C@]4(C)[C@@]3(F)[C@@H](O)C[C@@]21C" , report its Potency.
A) inactive

====

- Test Description: qHTS profiling of the MIPE4 collection as inhibitors of Plasmodium falciparum (DD2) proliferation (Rep 2) (AID 743346)
- Reported Conditions: P. falciparum Dd2 in erythrocytes, SYBR Green DNA, 72 h; at 28.5 µM (top of the series) unless noted
Mark true (1) only for parasite growth, % of control (lower = inhibition) values smaller than 10%; exact matches and larger values are false (0).

Q) is_below(parasite growth, % of control (lower = inhibition), 10%) for "CC1(C)O[C@@H]2C[C@H]3[C@@H]4CCC5=CC(=O)C=C[C@]5(C)[C@@H]4[C@@H](O)C[C@]3(C)[C@]2(C(=O)CO)O1" ?
A) true (1)

Q) Take the compound "CN1C(C(=O)Nc2ccccn2)=C(O)c2sc(Cl)cc2S1(=O)=O" and say whether its parasite growth, % of control (lower = inhibition) is less than 10%.
A) false (0)

Q) # check: parasite growth, % of control (lower = inhibition) < 10% for "Cc1ccc2nc(NCCN)c3ncc(C)n3c2c1"
A) false (0)

Q) Field: below-cutoff. Rule: recorded parasite growth, % of control (lower = inhibition) strictly less than 10%. Subject: "CCc1ccc(C(=O)Nc2cc(CN3CCN(C)CC3)cc(C(F)(F)F)c2)cc1C#Cc1cnc2ccnn2c1"
A) false (0)

Q) In plain terms, does "CCS(=O)(=O)Nc1ccc2[nH]c(O)c(C(=Nc3ccc(CN4CCCCC4)cc3)c3ccccc3)c2c1" come in under 10% for parasite growth, % of control (lower = inhibition)?
A) false (0)

Q) Hello, is parasite growth, % of control (lower = inhibition) of the following compound strictly smaller than 10%? "CC(C)(O)[C@H]1CC[C@@](C)([C@H]2[C@@H](O)C[C@@]3(C)[C@@H]4C[C@H](O[C@@H]5O[C@H](CO)[C@@H](O)[C@H](O)[C@@H]5O)[C@H]5C(C)(C)[C@@H](O[C@@H]6OC[C@@H](O)[C@H](O)[C@@H]6O)CC[C@@]56C[C@@]46CC[C@]23C)O1"
A) false (0)

====

Exercise: state measured viability (% of control) for each of the compounds provided.
- Test Description: High-throughput drug toxicity screening in the BPDCN cell line Cal-1 (AID 1224825);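 also: cells exposed to compounds for 48 h; 100% = DMSO and 0% = bortezomib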
- Reported Conditions: Cal-1 BPDCN cell viability, qHTS; at 45.8 µM (top of the series) unless noted
Provide the reading as a plain figure in %.

Q) Fill blank: measured viability (% of control) of the compound "Cn1cc(-c2ccc3ncc(Cc4ccc5ncccc5c4)n3n2)cn1" is ____.
A) 35.3

Q) Return reported viability (% of control); argument: C=C[C@@H]1CN2CCC1C[C@H]2[C@H](O)c1ccnc2ccc(OC)cc12 (stereo partly drawn)
A) 70

Q) Please give the measured viability (% of control) for this compound: "O=C(O)c1ccc(Nc2ncc3c(n2)-c2ccc(Cl)cc2C(c2c(F)cccc2F)=NC3)cc1"
A) 18.2

====

- Test Description: Quantitative High-Throughput drug screen in 47 multiple myeloma cell lines against the NCATS MIPE library collection: JIM3_ECACC cell viability assay (AID 1918963; also: nearly all actives have a fitted effect of over 35% in size)
- Reported Conditions: JIM3 myeloma viability, CellTiter-Glo ATP, 48 h; series mostly up to 45.8 µM
Inconclusive results are not listed. Calls of active or inactive are those of the source. The call rests on the fitted dose curve; in most records, active means well fitted cell-killing curve with a large enough effect; inconclusive means small, poorly fitted or top-dose-only effect; inactive means no such curve, though single readings can be large or run the other way.
Choose the fitting class; nothing outside 1 = active, 0 = inactive is accepted.

Q) Outcome? N[C@H]1CN(c2c(F)cc3c(=O)c(C(=O)O)cn(C4C[C@@H]4F)c3c2Cl)CC12CC2 (some centres undefined)
A) 0

Q) Record request — test call for Nc1cccc2c1C(=O)N(C1CCC(=O)NC1=O)C2=O (centres undefined)
A) 1

Q) Would you mind telling me which call this test gave "CCN(CC)CCNC(=O)c1c(C)[nH]c(C=C2C(=O)Nc3ccc(F)cc32)c1C" ?
A) 1

Q) How was "CC[C@H]1OC(=O)[C@H](C)[C@@H](O[C@H]2C[C@@](C)(OC)[C@@H](O)[C@H](C)O2)[C@H](C)[C@@H](O[C@@H]2O[C@@H](C)C[C@H](N(C)C)[C@@H]2O)[C@](C)(O)C[C@@H](C)C(=O)[C@H](C)[C@@H](O)[C@]1(C)O" classified in this test?
A) 0

====

- Test Description: qHTS of pediatric cancer cell lines to identify multiple opportunities for drug repurposing: Primary screen for SK-N-SH cells (AID 1347098); also: potency is read from the fitted curve at half-maximal effect; nearly all actives have a fitted effect of over 65% in size
- Reported Conditions: SK-N-SH viability, CellTiter-Glo luminescence, 48 h; series mostly up to 57 µM
Results filed as inconclusive are left out. Activity calls are given as the source filed them. Calls follow the shape of the dose curve; as a rule, active = well fitted cell-killing curve with a large enough effect; inconclusive = small, poorly fitted or top-dose-only effect; inactive = no such curve, though single readings can be large or run the other way.
Measured Quantity: Potency

Q) Please give the measured Potency for this molecule: "CCNC(=O)Nc1ccc(-c2nc3c(c(N4CCOC[C@H]4C)n2)CCN(C2COC2)C3)cc1"
A) 17.1 µM (active)

Q) What value of measured Potency is listed for "C=CCNC1=C2C[C@@H](C)C[C@H](OC)[C@@H](O)[C@@H](C)C=C(C)[C@H](OC(N)=O)[C@@H](OC)C=CC=C(C)C(=O)NC(=CC1=O)C2=O" ?
A) 2.41 µM (active)

Q) For "O=C(NCc1ccccc1)[C@H](Cc1ccccc1)NC(=O)[C@@H]1O[C@@H]1C(=O)NCCc1ccc(O)cc1" , what is its reported Potency?
A) 21.5 µM (active)

====

- Test Description: Quantitative High-Throughput drug screen in 47 multiple myeloma cell lines against the NCATS MIPE library collection: XG1_PLB cell viability assay (AID 1919866); also: nearly all actives have a fitted effect of over 35% in size
- Reported Conditions: CellTiter-Glo ATP, 48 h; series mostly up to 45.8 µM
Results filed as inconclusive are left out. Active and inactive are the calls of the source. Calls follow the shape of the dose curve; as a rule, active = well fitted cell-killing curve with a large enough effect; inconclusive = small, poorly fitted or top-dose-only effect, or effect the other way; inactive = no such curve, though single readings can be large or run the other way.
The reply should name one outcome from active, inactive

Q) Lab log entry: Cn1cc(C2=C(c3c4n(c5ccccc35)CCC(CN)C4)C(=O)NC2=O)c2ccccc21 (centres undefined) — outcome as called in the assay?
A) active

Q) Called result for "CCn1c(=O)c2c(nc(C=Cc3ccc(OC)c(OC)c3)n2C)n(CC)c1=O"
A) inactive

Q) How was "N#Cc1c(NC(=O)c2cccc3ccccc23)sc2c1CCCC2" classified in this test?
A) active

Q) What is the recorded call for this compound in the test? "O=C(O)CCCCCC(=O)NN=C1CCCC1"
A) inactive

Q) Entry "COc1cc(C)c(C=CC(C)=CC=CC(C)=CC(=O)O)c(C)c1C" : call = ?
A) inactive

Q) Returns: the outcome recorded for "Cn1cc(C=CC(=O)c2cccc(F)c2)cc1C=CC(=O)NO" in this assay.
A) active

Q) Would you mind telling me which call this test gave "CN1CCCN(C(=O)c2cccc(-c3ccc(C=C4C(=O)Nc5ccc(Cl)cc54)o3)c2)CC1" ?
A) active

Q) # lookup: test call for "CC[C@@]1([C@@H]2O[C@@H]([C@H]3O[C@@](O)(CO)[C@H](C)C[C@H]3C)C[C@H]2C)CC[C@H]([C@]2(C)CC[C@]3(C[C@H](O)[C@@H](C)[C@@H]([C@@H](C)[C@@H](OC)[C@H](C)C(=O)O)O3)O2)O1"
A) active

Q) Dear colleague, could you share the recorded outcome for "CCCNS(=O)(=O)Nc1ncnc(OCCOc2ncc(Br)cn2)c1-c1ccc(Br)cc1" when you have a moment?
A) inactive
